# Test system: RAW-Dual (murine macrophage reporter line)
# measurement_notes: NF-kB reporter (SEAP) activity fold change vs agonist alone; higher = enhanced NF-kB activity
# cond: modulator concentration 10 µM; agonist: CpG ODN 1826 0.5 ug/mL
result_type: NF-kB reporter

{"compound": "Cc1cc(CCNC(=O)c2cc3ccccc3s2)nn1C", "result_type": "NF-kB reporter", "numeric_result": 1.2}
{"compound": "COc1ccc(C(=O)OCCCN2C(=O)c3ccccc3C2=O)cc1", "result_type": "NF-kB reporter", "numeric_result": 0.926}
{"compound": "CNC(=O)Cc1cn(Cc2ccccc2)c2ccccc12", "result_type": "NF-kB reporter", "numeric_result": 0.809}
{"compound": "CNCC[C@@H](Oc1ccccc1C)c1ccccc1.Cl", "result_type": "NF-kB reporter", "numeric_result": 0.744}
{"compound": "CC1(C)CC(=O)C2=C(C1)OC(N)=C(C#N)C21C(=O)Nc2ccc(Br)cc21 (centres undefined)", "result_type": "NF-kB reporter", "numeric_result": 0.954}
{"compound": "CNc1nc(Nc2ccc(C)c(C)c2)c2nccnc2n1", "result_type": "NF-kB reporter", "numeric_result": 0.992}
{"compound": "CC1(C)CCCC2=C1CC1C(=O)NC(=O)C1C2 (centres undefined)", "result_type": "NF-kB reporter", "numeric_result": 0.88}
{"compound": "C=C(C)COc1ccc(-c2ncncc2-c2ccccc2)c(O)c1", "result_type": "NF-kB reporter", "numeric_result": 1.08}
{"compound": "COC(=O)c1cc(NC(=O)C2CCCC2)cc(C(=O)OC)c1", "result_type": "NF-kB reporter", "numeric_result": 0.969}
{"compound": "CCC(=O)N1c2ccccc2NC2=C(C(=O)CC(c3ccccc3Cl)C2)C1c1ccc(C)cc1 (centres undefined)", "result_type": "NF-kB reporter", "numeric_result": 1.02}
{"compound": "CN1CCN(CC(=O)N2c3ccccc3C(=O)Nc3cccnc32)CC1.Cl.Cl", "result_type": "NF-kB reporter", "numeric_result": 1.49}
{"compound": "CC1CCC2C(C)(C)C3CC12CCC3(C)O (centres undefined)", "result_type": "NF-kB reporter", "numeric_result": 1.04}
{"compound": "COc1cc(OC)c(NC(=O)C2CCCN(c3ccc(-c4ccc(C)c(C)c4)nn3)C2)cc1Cl (centres undefined)", "result_type": "NF-kB reporter", "numeric_result": 1.04}
{"compound": "CCOC(=O)C(CCc1ccccc1)NC(C)C(=O)N1C(C(=O)O)CC2CCCCC21 (centres undefined)", "result_type": "NF-kB reporter", "numeric_result": 0.994}
{"compound": "O=C(Oc1ccc(Cl)c2cccnc12)c1cccc(Cl)c1", "result_type": "NF-kB reporter", "numeric_result": 0.981}
{"compound": "CC(C)(C)c1cc(C(=O)Oc2cccc3cccnc23)cc(C(C)(C)C)c1", "result_type": "NF-kB reporter", "numeric_result": 0.895}
{"compound": "COc1cc2c(cc1OC)C(=O)NC1(CCCC1)C2", "result_type": "NF-kB reporter", "numeric_result": 1.24}
{"compound": "Cc1cccc(Oc2ccc(NC(=O)c3ccco3)cc2)c1C", "result_type": "NF-kB reporter", "numeric_result": 0.683}
{"compound": "Cc1cc(C)n(C2CC(=O)N(c3ccccc3)C2=O)n1 (centres undefined)", "result_type": "NF-kB reporter", "numeric_result": 1.04}
{"compound": "O=C(c1ccc(-c2nc3ccccc3s2)s1)N1CCOCC1", "result_type": "NF-kB reporter", "numeric_result": 1.08}
{"compound": "CCOc1ccccc1NC(=O)Nc1ccc2c(c1)CC(=O)N2CC", "result_type": "NF-kB reporter", "numeric_result": 1.17}
{"compound": "Cc1sc2ncnc(Nc3ccc(F)cc3)c2c1C", "result_type": "NF-kB reporter", "numeric_result": 0.813}
{"compound": "CCOc1ccccc1OCCCCOc1cccc(Br)c1", "result_type": "NF-kB reporter", "numeric_result": 0.728}
{"compound": "Cc1ccc(C)c(C(=O)c2ccccc2NC(=O)c2ccccn2)c1", "result_type": "NF-kB reporter", "numeric_result": 0.733}

Source of measurements: the supplement of paper PMC10646978
